# testedSystem: TSSK1 (Homo sapiens)
# Sequence (Q9BXA7 1-367): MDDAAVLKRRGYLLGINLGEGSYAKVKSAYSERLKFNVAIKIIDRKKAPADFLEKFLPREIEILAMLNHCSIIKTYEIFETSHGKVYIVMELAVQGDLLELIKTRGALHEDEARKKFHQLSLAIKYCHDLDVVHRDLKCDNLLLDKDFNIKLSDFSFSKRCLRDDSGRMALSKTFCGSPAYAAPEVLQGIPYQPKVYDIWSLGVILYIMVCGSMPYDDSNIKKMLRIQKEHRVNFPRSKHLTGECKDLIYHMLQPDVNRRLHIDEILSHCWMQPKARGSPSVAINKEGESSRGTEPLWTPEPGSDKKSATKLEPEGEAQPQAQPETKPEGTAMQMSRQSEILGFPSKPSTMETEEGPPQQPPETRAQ
pIC50: −log10 of the molar value.
attributeMeasured: pIC50

[ask] Returns the measured pIC50 for the input compound. Input: CCn1cc(-c2ccnc(Nc3cccc(S(N)(=O)=O)c3)n2)c2cccnc21
[reply] < 5.00

* * *

# testedSystem: Aurora B (Homo sapiens, UniProt Q96GD4)
# Sequence (Q96GD4 whole entry): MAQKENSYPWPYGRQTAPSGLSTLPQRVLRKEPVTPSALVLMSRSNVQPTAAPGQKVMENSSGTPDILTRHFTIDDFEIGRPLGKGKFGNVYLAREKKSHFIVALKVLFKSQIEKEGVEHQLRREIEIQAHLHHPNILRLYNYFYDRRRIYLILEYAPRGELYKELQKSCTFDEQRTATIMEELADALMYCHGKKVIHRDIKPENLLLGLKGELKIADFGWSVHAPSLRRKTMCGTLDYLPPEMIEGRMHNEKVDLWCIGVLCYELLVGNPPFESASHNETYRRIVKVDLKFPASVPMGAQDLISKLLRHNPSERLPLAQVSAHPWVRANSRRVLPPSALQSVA
pIC50: −log10 of the molar value.
attributeMeasured: pIC50

[ask] Returns the measured pIC50 for the input compound. Input: CCn1cc(-c2ccnc(Nc3cccc(S(N)(=O)=O)c3)n2)c2ccnc(Cl)c21
[reply] < 5.00

* * *

# Tested on: HCT116
# protocolDetails: Cellular effect in mammalian cells, HCT116
# Format: cell-based
# reportedConditions: Homo sapiens, HCT-116
Below, each entry is listed with its recorded pIC50.
Expect pIC50 as a plain number equal to -log10 of the molar concentration.

[ask] Returns the measured pIC50 for the input molecule. Input: CCn1cc(-c2ccnc(Nc3cccc(S(N)(=O)=O)c3)n2)c2ccnc(Cl)c21
[reply] 6.55

[ask] Returns the measured pIC50 for the input molecule. Input: CCn1cc(-c2ccnc(Nc3cccc(O)c3)n2)c2ccnc(Cl)c21
[reply] 5.33

[ask] Returns the measured pIC50 for the input molecule. Input: CCCn1cc(-c2ccnc(Nc3cccc(S(N)(=O)=O)c3)n2)c2nc(Cl)cc(C)c21
[reply] 5.45

[ask] Returns the measured pIC50 for the input molecule. Input: CCn1cc(-c2ccnc(Nc3ccc(O)cc3)n2)c2ccnc(Cl)c21
[reply] 5.37

* * *

# testedSystem: CDK2 (Homo sapiens)
attributeMeasured: IC50 (nM)
# unit: nM | format: bare number

[ask] Returns the measured IC50 for the input molecule. Input: CCn1cc(-c2ccnc(Nc3cccc(O)c3)n2)c2ccnc(Cl)c21
[reply] 4

* * *

# protocolDetails: Preliminary toxicology study in mice (acute toxicity)
# Assay type: in vivo
# reportedConditions: mouse, in vivo, po, p.o. (gavage), two weeks
attributeMeasured: LD50 at 2 weeks

[ask] Returns the measured LD50 at 2 weeks for the input molecule. Input: CCn1cc(-c2ccnc(Nc3cccc(S(N)(=O)=O)c3)n2)c2cccnc21 [Compound 18]
[reply] > 2000 mg/kg

* * *

# System: L02
# protocolDetails: Cellular effect in mammalian cells, L02
# Format: cell-based
# reportedConditions: Homo sapiens
attributeMeasured: pIC50
Expect pIC50 as a plain number equal to -log10 of the molar concentration.

CCCn1cc(-c2ccnc(Nc3ccc(S(N)(=O)=O)cc3)n2)c2nc(Cl)cc(C)c21 [SG54]
5.08
CCn1cc(-c2ccnc(Nc3cccc(S(N)(=O)=O)c3)n2)c2cccnc21 [Compound 18]
5.37
CCn1cc(-c2ccnc(Nc3cccc(O)c3)n2)c2ccnc(Cl)c21 [SG48]
5.09
CCCn1cc(-c2ccnc(Nc3ccc(C)c(S(=O)(=O)N4CCOCC4)c3)n2)c2ccncc21 [SG52]
5.85

[ask] Returns the measured pIC50 for the input compound. Input: CCn1cc(-c2ccnc(Nc3ccc(O)cc3)n2)c2ccnc(Cl)c21 [SG49]
[reply] 5.13

Source: patent US20140303163A1
